Assay: Pharmacokinetic study in rat plasma after oral administration of FKQJF extract (UFLC–MS/MS)
Type: in vivo, Sprague-Dawley (SD) rats
Settings: Sprague-Dawley, oral FKQJF extract, single dose 3.2 g/kg, mean ± SD, read-out: MRT0→∞
measurement-label: MRT inf (h)
Write the answer as a number in h, unit excluded.

Query: Can you look up the measured MRT inf of O=Cc1ccc2n1C[C@]1(C[C@H](O)[C@@H](CO)O1)OC2 for me?
Response: 4.32

Query: Follow-up entry: C=C1CC[C@@H]2[C@](C)(CO[C@@H]3O[C@H](CO)[C@@H](O)[C@H](O)[C@H]3O)CCC[C@@]2(C)[C@@H]1CCC1=CCOC1=O [Analyte 5, neoandrographolide]
Response: 7.55

Query: Moving on to the next compound: COc1cc(O)c2c(=O)cc(-c3ccccc3)oc2c1OC
Response: 2.55

Query: Another: COc1cc2c(cc1O)CC[n+]1cc3c(OC)c(OC)ccc3cc1-2
Response: 10.5

Query: And COC(=O)c1ccc(O)cn1 [Analyte 2, 5-hydroxypicolinic acid methyl ester] ?
Response: 8.09

Query: Now consider C=C1CC[C@@H]2[C@](C)(CO)CCC[C@@]2(C)[C@@H]1CCC1=CCOC1=O .
Response: 9.82

Query: What would you report for C=C1CC[C@@H]2[C@](C)(CO)[C@H](O)CC[C@@]2(C)[C@@H]1C/C=C1/C(=O)OC[C@H]1O [Analyte 12, andrographolide] ?
Response: 3.1

Query: Subsequent entry: C=C1CC[C@@H]2[C@](C)(CO)[C@H](O)CC[C@@]2(C)[C@@H]1/C=C/C1=CCOC1=O [Analyte 15, 14-deoxy-11,12-didehydro-andrographolide]
Response: 3.05

Query: Okay, and COc1cc(/C=C/C(=O)O)ccc1O [Analyte 6, trans-ferulic acid] ?
Response: 13.9

Query: Can you check O=C1C[C@@H](c2ccc(O)cc2)Oc2cc(O)cc(O)c21 next?
Response: 17

Query: Please give the result for O=Cc1ccc2n1C[C@@]1(C[C@H](O)[C@@H](CO)O1)OC2 [Analyte 4, 9-epi-acortatarin A] too.
Response: 3.25

Query: Follow-up item: CCC/C=C1\OC(=O)C2=C1CCC=C2 [Analyte 18, Z-ligustilide]
Response: 48.2

Query: Input COc1cc2c(cc1OC)-c1cc3ccc(OC)c(OC)c3c[n+]1CC2
Response: 14.2

Query: Please give the result for O=C(O)c1ccccc1O too.
Response: 4.31

Query: Also need COc1cc(O[C@@H]2O[C@H](CO)[C@@H](O)[C@H](O)[C@H]2O)cc(OC)c1OC , thanks.
Response: 3.37
